EC50 listing for selected molecules.
measuredOn: ABCB4 WT (Homo sapiens)
Construct: expressed in transfected cells
Sequence (P21439 whole entry): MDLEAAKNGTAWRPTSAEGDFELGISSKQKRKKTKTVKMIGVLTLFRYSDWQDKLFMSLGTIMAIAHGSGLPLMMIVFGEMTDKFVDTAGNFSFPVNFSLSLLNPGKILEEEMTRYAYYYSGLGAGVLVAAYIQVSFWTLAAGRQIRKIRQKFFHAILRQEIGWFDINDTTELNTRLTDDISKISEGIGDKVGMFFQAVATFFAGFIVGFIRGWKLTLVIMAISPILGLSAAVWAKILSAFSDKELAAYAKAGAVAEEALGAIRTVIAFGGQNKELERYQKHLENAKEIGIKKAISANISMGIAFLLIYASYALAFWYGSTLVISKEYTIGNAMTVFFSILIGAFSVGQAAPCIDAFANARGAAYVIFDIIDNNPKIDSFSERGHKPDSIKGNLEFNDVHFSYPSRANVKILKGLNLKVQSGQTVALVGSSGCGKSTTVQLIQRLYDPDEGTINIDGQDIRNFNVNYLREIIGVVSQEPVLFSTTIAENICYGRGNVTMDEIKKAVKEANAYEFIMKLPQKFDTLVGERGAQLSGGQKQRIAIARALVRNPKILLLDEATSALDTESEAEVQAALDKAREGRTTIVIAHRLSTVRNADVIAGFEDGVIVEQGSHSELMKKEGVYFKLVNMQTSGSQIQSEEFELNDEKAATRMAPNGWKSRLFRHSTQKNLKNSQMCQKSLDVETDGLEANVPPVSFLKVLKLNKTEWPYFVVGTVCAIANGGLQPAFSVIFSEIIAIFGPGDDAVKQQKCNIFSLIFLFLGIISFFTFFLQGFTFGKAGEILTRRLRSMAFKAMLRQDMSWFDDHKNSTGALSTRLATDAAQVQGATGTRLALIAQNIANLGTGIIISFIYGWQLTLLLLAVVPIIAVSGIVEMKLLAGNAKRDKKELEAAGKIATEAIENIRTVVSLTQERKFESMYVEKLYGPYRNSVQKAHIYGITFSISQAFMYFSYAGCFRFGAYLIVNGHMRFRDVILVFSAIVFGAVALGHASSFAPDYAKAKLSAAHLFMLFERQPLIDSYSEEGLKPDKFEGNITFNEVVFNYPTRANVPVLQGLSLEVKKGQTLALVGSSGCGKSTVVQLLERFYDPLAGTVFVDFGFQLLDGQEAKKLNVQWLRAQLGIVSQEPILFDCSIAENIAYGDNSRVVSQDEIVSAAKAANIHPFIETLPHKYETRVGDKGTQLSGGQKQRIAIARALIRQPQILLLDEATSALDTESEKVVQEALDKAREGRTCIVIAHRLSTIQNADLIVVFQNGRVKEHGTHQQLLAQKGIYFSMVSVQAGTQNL
methodSummary: ABCB4 WT assay: HiBit protein expression
Format: cell-based
runParameters: HEK-293 cells stably expressing HiBit-tagged ABCB4 WT; 24 h treatment; top concentration 30 μM; read-out: ABCB4 WT EC50, Emax
measurementType: EC50

> print(dat)
                                    molecule  measurementtype  reportedvalue
 1  Cc1cc(C)c(Oc2nc(-c3cncc(Cl)c3)ccc2N2CCCCS2(=O)=O)c(C)c1 [Compound I-66]             EC50        ≥ 25 µM
 2  Cc1cc(C)c(Oc2nc(-c3cc[nH]c(=O)c3)ccc2NS(C)(=O)=O)c(C)n1 [Compound I-187]             EC50        ≥ 25 µM
 3  Cc1nc(C2CCC2)nc(C)c1Oc1nc(-c2cncc(C#N)c2)ccc1NS(C)(=O)=O [Compound I-181]             EC50         < 1 µM
 4  Cc1cc(C)c(Oc2nc(-c3cncc(Cl)c3)ccc2S(=O)(=O)Nc2cnn(C)c2)c(C)c1 [Compound I-94]             EC50     1 to 10 µM
 5  Cc1cc(C)c(Oc2nc(-c3cncc(Cl)c3)ccc2NS(=O)(=O)C2COC2)c(C)c1 [Compound I-41]             EC50        ≥ 25 µM
 6  Cc1cc(C)c(Oc2nc(-c3cncc(S(C)(=N)=O)c3)ccc2NS(C)(=O)=O)c(C)n1 (centres unmarked) [Compound I-116]             EC50        ≥ 25 µM
 7  Cc1cc(C)c(Oc2nc(-c3cncc(Cl)c3)ccc2N(C)S(=O)(=O)c2cccnc2)c(C2CC2)c1 [Compound I-53]             EC50        ≥ 25 µM
 8  Cc1cc(C)c(Oc2nc(-c3ccc(C#N)nc3C)ccc2NS(C)(=O)=O)c(C)c1 [Compound I-6]             EC50        ≥ 25 µM
 9  Cc1cc(C2CC2)nc(C2CC2)c1Oc1nc(-c2cncc(C#N)c2)ccc1S(=N)(=O)C1CC1 (centres unmarked) [Compound I-317]             EC50         < 1 µM
10  Cc1cc(C)c(Oc2nc(-c3cncc(C4COC4)c3)ccc2NS(C)(=O)=O)c(C)n1 [Compound I-216]             EC50         < 1 µM
11  Cc1cc(C)c(Oc2nc(-c3cncc(C#N)c3)ccc2S(=N)(=O)C2CC2)c(C)c1 (centres unmarked) [Compound I-245]             EC50     1 to 10 µM

====

measuredOn: ABCC6 WT (Homo sapiens)
Sequence (O95255 whole entry): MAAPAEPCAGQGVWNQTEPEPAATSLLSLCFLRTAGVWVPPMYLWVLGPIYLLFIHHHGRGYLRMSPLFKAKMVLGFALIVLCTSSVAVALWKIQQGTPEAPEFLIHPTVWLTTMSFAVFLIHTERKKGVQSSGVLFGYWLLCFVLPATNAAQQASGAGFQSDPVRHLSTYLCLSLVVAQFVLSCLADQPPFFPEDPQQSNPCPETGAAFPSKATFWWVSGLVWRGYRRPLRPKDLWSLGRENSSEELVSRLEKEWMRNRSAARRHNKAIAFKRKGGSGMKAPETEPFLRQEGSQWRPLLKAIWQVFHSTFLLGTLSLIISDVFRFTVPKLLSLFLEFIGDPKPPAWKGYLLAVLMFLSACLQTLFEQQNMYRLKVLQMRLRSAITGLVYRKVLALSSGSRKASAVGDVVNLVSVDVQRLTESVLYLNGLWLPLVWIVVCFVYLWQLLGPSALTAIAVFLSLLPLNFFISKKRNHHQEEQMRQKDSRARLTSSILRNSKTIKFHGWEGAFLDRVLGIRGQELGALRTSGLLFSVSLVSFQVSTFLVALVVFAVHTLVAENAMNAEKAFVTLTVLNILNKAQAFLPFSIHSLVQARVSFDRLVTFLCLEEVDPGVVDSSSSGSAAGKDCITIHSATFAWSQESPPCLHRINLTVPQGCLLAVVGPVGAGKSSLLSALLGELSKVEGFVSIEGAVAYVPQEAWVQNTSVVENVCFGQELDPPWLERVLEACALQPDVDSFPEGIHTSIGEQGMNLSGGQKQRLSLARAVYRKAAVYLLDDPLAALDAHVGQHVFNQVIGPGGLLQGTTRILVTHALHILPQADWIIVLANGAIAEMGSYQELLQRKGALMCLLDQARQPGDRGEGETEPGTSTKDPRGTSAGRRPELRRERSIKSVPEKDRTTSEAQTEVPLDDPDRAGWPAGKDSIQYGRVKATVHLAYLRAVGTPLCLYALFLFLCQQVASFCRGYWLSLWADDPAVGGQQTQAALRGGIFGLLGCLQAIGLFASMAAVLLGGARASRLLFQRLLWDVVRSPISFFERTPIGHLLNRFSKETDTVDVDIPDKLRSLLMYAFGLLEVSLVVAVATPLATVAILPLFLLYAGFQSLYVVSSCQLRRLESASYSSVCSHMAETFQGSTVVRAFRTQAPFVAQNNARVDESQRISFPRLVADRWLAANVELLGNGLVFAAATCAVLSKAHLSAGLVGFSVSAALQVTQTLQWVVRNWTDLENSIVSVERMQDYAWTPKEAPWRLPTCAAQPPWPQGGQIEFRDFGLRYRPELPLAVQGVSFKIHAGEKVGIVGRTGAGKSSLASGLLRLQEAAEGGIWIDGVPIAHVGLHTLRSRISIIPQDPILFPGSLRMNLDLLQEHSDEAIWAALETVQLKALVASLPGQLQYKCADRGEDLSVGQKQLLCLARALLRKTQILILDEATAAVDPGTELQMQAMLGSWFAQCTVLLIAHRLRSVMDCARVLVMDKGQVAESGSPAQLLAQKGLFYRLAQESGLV
methodSummary: ABCC6 WT assay: HiBit protein expression
runParameters: HEK-293 cells transiently expressing HiBit-tagged ABCC6 WT; 24 h treatment; top concentration 20 μM; read-out: ABCC6 WT EC50, Emax
measurementType: EC50

> print(dat)
                                    molecule               measuredon  measurementtype     reportedvalue
 1  Cc1cc(C)c(Oc2nc(-c3cncc(Cl)c3)ccc2N2CCCCS2(=O)=O)c(C)c1  ABCC6 WT (Homo sapiens)             EC50  1000 to 10000 nM
 2  Cc1cc(C)c(Oc2nc(-c3cncc(CO)c3)ccc2NS(C)(=O)=O)c(C)n1  ABCC6 WT (Homo sapiens)             EC50         < 1000 nM
 3  Cc1cc(C)c(Oc2nc(N3CCN(C(=O)N(C)C)CC3)ccc2NS(C)(=O)=O)c(C)c1  ABCC6 WT (Homo sapiens)             EC50  1000 to 10000 nM
 4  CNS(=O)(=O)c1cnc(-c2cncc(Cl)c2)cc1Oc1c(C)cc(C)cc1C  ABCC6 WT (Homo sapiens)             EC50        ≥ 25000 nM
 5  CCS(=O)(=O)N(C)c1ccc(-c2cncc(C#N)c2)nc1Oc1c(C)cc(C(F)(F)F)nc1C1CC1  ABCC6 WT (Homo sapiens)             EC50         < 1000 nM
 6  Cc1cc(C)c(Oc2nc(N3CCC(C#N)CC3)ccc2NS(C)(=O)=O)c(C)c1  ABCC6 WT (Homo sapiens)             EC50  1000 to 10000 nM
 7  Cc1cc(C2CC2)nc(C)c1Oc1nc(-c2cncc(C#N)c2)ccc1NS(C)(=O)=O  ABCC6 WT (Homo sapiens)             EC50         < 1000 nM
 8  Cc1cc(C)c(Oc2nc(-c3cncc(C#N)c3)c(O)cc2NS(C)(=O)=O)c(C)n1  ABCC6 WT (Homo sapiens)             EC50         < 1000 nM
 9  Cc1cc(C)c(Oc2nc(-c3cncc(Cl)c3)ccc2N(C)S(=O)(=O)c2cnn(C)c2)c(C)c1  ABCC6 WT (Homo sapiens)             EC50         < 1000 nM
10  Cc1cc(C(F)F)nc(C)c1Oc1nc(-c2cncc(C3COC3)c2)ccc1NS(C)(=O)=O  ABCC6 WT (Homo sapiens)             EC50         < 1000 nM
11  Cc1cc(C(F)(F)F)nc(C2CC2)c1Oc1nc(-c2cccc(C#N)c2)ccc1S(=N)(=O)C1CC1 (stereo not drawn)  ABCC6 WT (Homo sapiens)             EC50         < 1000 nM
12  Cc1cc(C)c(Oc2nc(-c3ccc(C#N)nc3)ccc2NS(C)(=O)=O)c(C)c1  ABCC6 WT (Homo sapiens)             EC50         < 1000 nM

====

measuredOn: ABCA4 P1380L (Homo sapiens, UniProt P78363, P1380L)
Construct: expressed in transfected cells
Sequence (P78363 whole entry P1380L): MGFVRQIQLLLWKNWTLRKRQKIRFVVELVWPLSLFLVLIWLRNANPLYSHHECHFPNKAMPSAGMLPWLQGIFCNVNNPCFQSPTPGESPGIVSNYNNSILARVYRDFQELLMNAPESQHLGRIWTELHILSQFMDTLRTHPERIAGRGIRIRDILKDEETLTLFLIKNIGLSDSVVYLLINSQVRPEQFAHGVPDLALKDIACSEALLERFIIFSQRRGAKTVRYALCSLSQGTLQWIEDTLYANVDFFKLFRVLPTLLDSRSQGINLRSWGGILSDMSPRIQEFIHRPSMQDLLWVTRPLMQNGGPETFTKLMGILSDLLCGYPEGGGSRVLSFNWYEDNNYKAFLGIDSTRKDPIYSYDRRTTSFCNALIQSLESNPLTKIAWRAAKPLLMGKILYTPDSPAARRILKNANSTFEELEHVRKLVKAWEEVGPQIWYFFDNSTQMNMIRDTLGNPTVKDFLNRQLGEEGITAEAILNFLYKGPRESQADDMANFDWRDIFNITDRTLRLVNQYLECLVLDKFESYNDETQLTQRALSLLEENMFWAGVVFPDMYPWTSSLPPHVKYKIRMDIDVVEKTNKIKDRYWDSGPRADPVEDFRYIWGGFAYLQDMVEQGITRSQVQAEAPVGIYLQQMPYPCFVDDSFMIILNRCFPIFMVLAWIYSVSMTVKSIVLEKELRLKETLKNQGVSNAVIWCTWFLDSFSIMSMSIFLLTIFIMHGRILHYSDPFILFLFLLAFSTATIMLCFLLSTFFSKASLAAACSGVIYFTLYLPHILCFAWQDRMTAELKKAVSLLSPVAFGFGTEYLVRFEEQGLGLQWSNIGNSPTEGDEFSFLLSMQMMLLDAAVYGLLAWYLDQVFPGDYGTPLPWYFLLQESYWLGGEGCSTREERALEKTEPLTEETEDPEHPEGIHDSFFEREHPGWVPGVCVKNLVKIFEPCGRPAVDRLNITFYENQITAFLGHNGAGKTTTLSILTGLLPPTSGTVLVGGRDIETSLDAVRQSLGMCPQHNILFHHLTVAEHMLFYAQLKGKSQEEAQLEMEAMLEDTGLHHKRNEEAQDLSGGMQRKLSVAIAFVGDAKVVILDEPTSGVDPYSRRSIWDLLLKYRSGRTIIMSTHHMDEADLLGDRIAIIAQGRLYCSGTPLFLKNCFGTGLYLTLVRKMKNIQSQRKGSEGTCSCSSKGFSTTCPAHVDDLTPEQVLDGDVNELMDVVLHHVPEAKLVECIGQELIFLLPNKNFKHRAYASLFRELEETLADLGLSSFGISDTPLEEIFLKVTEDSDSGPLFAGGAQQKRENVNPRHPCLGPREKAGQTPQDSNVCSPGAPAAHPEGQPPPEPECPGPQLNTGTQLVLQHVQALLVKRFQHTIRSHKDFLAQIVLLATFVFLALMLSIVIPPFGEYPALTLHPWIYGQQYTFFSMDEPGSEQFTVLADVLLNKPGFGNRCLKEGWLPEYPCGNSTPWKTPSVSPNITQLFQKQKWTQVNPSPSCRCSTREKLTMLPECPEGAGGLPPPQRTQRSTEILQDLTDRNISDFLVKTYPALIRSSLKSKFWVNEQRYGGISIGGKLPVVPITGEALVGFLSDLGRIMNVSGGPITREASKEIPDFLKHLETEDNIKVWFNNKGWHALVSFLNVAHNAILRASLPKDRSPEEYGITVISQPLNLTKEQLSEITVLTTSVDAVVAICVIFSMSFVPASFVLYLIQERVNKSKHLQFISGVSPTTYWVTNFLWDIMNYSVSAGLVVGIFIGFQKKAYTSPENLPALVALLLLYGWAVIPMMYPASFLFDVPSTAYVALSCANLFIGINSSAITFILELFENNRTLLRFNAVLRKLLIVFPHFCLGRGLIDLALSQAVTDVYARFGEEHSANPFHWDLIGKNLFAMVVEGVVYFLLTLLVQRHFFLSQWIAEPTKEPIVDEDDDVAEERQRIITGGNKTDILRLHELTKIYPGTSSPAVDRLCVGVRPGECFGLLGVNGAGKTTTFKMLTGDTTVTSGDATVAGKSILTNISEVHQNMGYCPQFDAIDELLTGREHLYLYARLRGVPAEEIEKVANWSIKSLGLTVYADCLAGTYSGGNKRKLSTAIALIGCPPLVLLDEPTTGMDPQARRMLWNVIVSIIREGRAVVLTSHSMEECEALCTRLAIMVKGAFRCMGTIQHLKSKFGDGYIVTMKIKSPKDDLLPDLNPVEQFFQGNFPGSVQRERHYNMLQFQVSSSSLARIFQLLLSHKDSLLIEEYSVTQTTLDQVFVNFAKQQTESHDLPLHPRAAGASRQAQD
methodSummary: A4 correction dose-response assay: ABCA4 P1380L HiBit protein expression
Type: cell-based
runParameters: HEK-293 cells stably expressing HiBit-tagged ABCA4 P1380L; 24 h treatment; top concentration 30 μM; read-out: ABCA4 P1380L EC50, Emax
pEC50: −log10 of the molar value.
pEC50 listing for selected molecules.
measurementType: pEC50

> print(dat)
                             chemicalsmiles  reportedvalue
1  CNS(=O)(=O)c1ccc(N2CCN(C(=O)C3CC3)CC2)nc1Oc1c(C)cc(C)cc1C         > 6.00
2  Cc1nc(N2CC(S(C)(=O)=O)C2)nc(C)c1Oc1nc(-c2cncc(C#N)c2)ccc1NS(C)(=O)=O   5.00 to 6.00
3  Cc1cc(C(F)(F)F)nc(C2CC2)c1Oc1nc(-c2cncc(C#N)c2)ccc1S(=O)(=O)NC1CCOCC1         > 4.60
4  Cc1cc(C)c(Oc2nc(N3CCN(C(=O)C4CCC4)CC3)ccc2NS(C)(=O)=O)c(C)c1   5.00 to 6.00

====

measuredOn: ABCA4 P1380L (Homo sapiens, UniProt P78363, P1380L)
Construct: expressed in transfected cells
methodSummary: A4 correction dose-response assay: ABCA4 P1380L HiBit protein expression
Type: cell-based
runParameters: HEK-293 cells stably expressing HiBit-tagged ABCA4 P1380L; 24 h treatment; top concentration 30 μM; read-out: ABCA4 P1380L EC50, Emax
measurementType: EC50

> print(dat)
                                    compound  reportedvalue
 1  Cc1cc(C)c(Oc2nc(-c3cncc(C#N)c3)ccc2NS(=O)(=O)C2CC2)c(C)n1 [Compound I-266]         < 1 µM
 2  Cc1cc(C(F)(F)F)nc(C2CC2)c1Oc1nc(-c2cncc(C#N)c2)ccc1S(=O)(=O)N(C)C [Compound I-291]        < 25 µM
 3  Cc1cc(C)c(Oc2nc(-n3ccc(C#N)n3)ccc2NS(C)(=O)=O)c(C)c1 [Compound I-257]        < 25 µM
 4  Cc1cc(C)c(Oc2nc(-c3cncc(Cl)c3)ccc2NS(=O)(=O)C(C)C)c(C)c1 [Compound I-29]        > 25 µM
 5  Cc1cc(N2CC(F)(F)C2)nc(C)c1Oc1nc(-c2cncc(C#N)c2)ccc1NS(C)(=O)=O [Compound I-180]        > 25 µM
 6  Cc1cc(C)c(Oc2nc(-c3cncc(Cl)c3)ccc2S(C)(=N)=O)c(C)c1 (centres unmarked) [Compound I-103]     1 to 10 µM
 7  Cc1nc(C)c(Oc2nc(-c3cncc(C(F)F)c3)ccc2NS(C)(=O)=O)c(C)n1 [Compound I-191]         < 1 µM
 8  Cc1cc(C)c(Oc2nc(N3CCN(C(=O)C4CC4)CC3)ccc2S(N)(=O)=O)c(C)c1 [Compound I-285]        > 25 µM
 9  CNS(=O)(=O)c1ccc(-c2cncc(Cl)c2)nc1Oc1c(C)cc(C)cc1C1CC1 [Compound I-77]        < 25 µM
10  Cc1cnc(Oc2nc(-c3cncc(C#N)c3)ccc2NS(C)(=O)=O)c(C)c1 [Compound I-250]        > 25 µM
11  COc1cc(-c2ccc(NS(C)(=O)=O)c(Oc3c(C)cc(C)nc3C)n2)ccn1 [Compound I-188]     1 to 10 µM
12  Cc1cc(C2CC2)nc(C)c1Oc1nc(-n2cnc(C#N)c2)ccc1NS(C)(=O)=O [Compound I-254]         < 1 µM
13  Cc1cc(OC(F)(F)F)nc(C)c1Oc1nc(-c2cncc(C#N)c2)ccc1NS(C)(=O)=O [Compound I-131]         < 1 µM
14  Cc1cc(C)c(Oc2nc(-c3cncc(C#N)c3)cnc2NS(C)(=O)=O)c(C)n1 [Compound I-259]        < 25 µM
15  Cc1cc(C)c(Oc2nc(-c3cn(C)nc3C)ccc2NS(C)(=O)=O)c(C)c1 [Compound I-283]         < 1 µM
16  Cc1cc(C)c(Oc2nc(-c3cnc(C#N)c(Cl)c3)ccc2NS(C)(=O)=O)c(C)c1 [Compound I-36]         < 1 µM
17  Cc1cc(C)c(Oc2nc(-c3cncc(Cl)c3)cnc2NS(C)(=O)=O)c(C)n1 [Compound I-260]        > 25 µM
18  Cc1nc(C2CC2)nc(C)c1Oc1nc(-c2cncc(C#N)c2)ccc1NS(C)(=O)=O [Compound I-183]         < 1 µM
19  CNS(=O)(=O)c1ccc(N2CCN(C)C(=O)C2)nc1Oc1c(C)cc(C)cc1C [Compound I-92]        > 25 µM
20  Cc1cc(N2CCC2)nc(C)c1Oc1nc(-c2cncc(C#N)c2)ccc1NS(C)(=O)=O [Compound I-177]         < 1 µM
21  Cc1cc(C)c(Oc2nc(-n3cc(C#N)cn3)ccc2NS(C)(=O)=O)c(C)c1 [Compound I-274]         < 1 µM
22  COC1CN(c2cncc(-c3ccc(NS(C)(=O)=O)c(Oc4c(C)cc(C)nc4C)n3)c2)C1 [Compound I-196]        > 25 µM
23  Cc1cc(C)c(Oc2nc(-c3cncc(C#N)c3)ccc2N2CCCS2(=O)=O)c(C)n1 [Compound I-221]     1 to 10 µM
24  Cc1cc(C2CC2)nc(C)c1Oc1nc(-n2ccc(C#N)n2)ccc1NS(C)(=O)=O [Compound I-255]        > 25 µM
25  Cc1cc(C)c(Oc2nc(N3C4CC3CN(C(=O)C3CC3)C4)ccc2NS(C)(=O)=O)c(C)c1 [Compound I-35]        > 25 µM
26  Cc1cc(C)c(Oc2nc(-c3cncc(Cl)c3)ccc2S(=O)(=O)NC(c2ccccn2)C(F)(F)F)c(C)c1 (single isomer, unassigned) [Compound I-80]        > 25 µM
